Consider the following compounds; for each one, report its IC50.
- Study target: purified recombinant HIV-1 reverse transcriptase (Human immunodeficiency virus type 1 group M subtype B)
- Construct: purified recombinant HIV-1 reverse transcriptase; made in house; host or cells: Escherichia coli
- Assay protocol: reverse transcriptase inhibition, poly(rA)/(dT) template primer, [3H]dTTP uptake
- Type: biochemical
State just the number; it will be interpreted in µM.

Query (compound): CC(C)c1nc(COC(N)=O)n(Cc2cnc3ccccc3c2)c1Sc1cc(Cl)cc(Cl)c1 ; field requested: IC50
5.38

Query (compound): CCCn1c(COC(N)=O)nc(C(C)C)c1Sc1cc(Cl)cc(Cl)c1 ; field requested: IC50
0.944

Query (compound): CC(C)c1nc(CN)n(Cc2ccccc2)c1Sc1cc(Cl)cc(Cl)c1 ; field requested: IC50
4.43

Query (compound): CC(C)c1nc(CO)n(C)c1Sc1cc(Cl)cc(Cl)c1 ; field requested: IC50
3.02

Query (compound): CCc1nc(C)n(C)c1Sc1cc(C)cc(C)c1 ; field requested: IC50
8.83

Query (compound): CCn1c(CCOCc2ccccc2)nc(C(C)C)c1Sc1cc(Cl)cc(Cl)c1 [Compound 122a] ; field requested: IC50
42.3

Query (compound): CC(C)c1nc(CCCOC(N)=O)n(C)c1Sc1cc(Cl)cc(Cl)c1 ; field requested: IC50
0.895

Query (compound): CC(C)c1nc(CCO)n(Cc2cccc([N+](=O)[O-])c2)c1Sc1cc(Cl)cc(Cl)c1 [Compound 126b] ; field requested: IC50
8.58

Query (compound): CC(C)c1nc(CC#N)n(C)c1Sc1cc(Cl)cc(Cl)c1 [Compound I-80a] ; field requested: IC50
0.323

Query (compound): CC(C)c1nc(CO)n(C)c1Sc1cccc(Cl)c1 ; field requested: IC50
2.7

Query (compound): CC(C)c1nc(CO)n(CCCc2ccccn2)c1Sc1cc(Cl)cc(Cl)c1 [Compound 112b] ; field requested: IC50
5.96

Query (compound): CC(C)c1nc(COC(N)=O)n(C)c1Sc1cccc(Cl)c1 ; field requested: IC50
5

Query (compound): CCn1c(COCCOC(N)=O)nc(C(C)C)c1Sc1cc(Cl)cc(Cl)c1 ; field requested: IC50
10.9

Query (compound): Cc1nc(C(C)C)c(Sc2cc(Cl)cc(Cl)c2)n1C ; field requested: IC50
3.81

Query (compound): CC(C)c1nc(CCO)n(C)c1Sc1cc(Cl)cc(Cl)c1 [Compound I-81a] ; field requested: IC50
0.405

Query (compound): CCn1c(CO)nc(C(C)C)c1Sc1cc(Cl)cc(Cl)c1 ; field requested: IC50
1.39

Query (compound): CC(C)c1nc(CO)n(CCCc2ccccc2)c1Sc1cc(Cl)cc(Cl)c1 ; field requested: IC50
7.12

Query (compound): CC(C)c1nc(CN)n(Cc2ccncc2)c1Sc1cc(Cl)cc(Cl)c1 ; field requested: IC50
1.18

Query (compound): CC(C)c1nc(CO)n(C(C)C)c1Sc1cc(Cl)cc(Cl)c1 ; field requested: IC50
3.34

Query (compound): CC(C)c1nc(CO)n(Cc2ccc[nH]c2=O)c1Sc1cc(Cl)cc(Cl)c1 [Compound 116b] ; field requested: IC50
7.54

----------
Consider the following compounds; for each one, report its IC50.
- Study target: purified recombinant HIV-1 reverse transcriptase (Human immunodeficiency virus type 1 group M subtype B)
- Construct: purified recombinant HIV-1 reverse transcriptase; made in house; host or cells: Escherichia coli
- Assay protocol: reverse transcriptase inhibition, poly(rA)/(dT) template primer, [3H]dTTP uptake
- Format: biochemical
State just the number; it will be interpreted in µM.

Query (compound): CC(C#N)c1nc(COC(N)=O)n(C)c1Sc1cccc(Cl)c1 (centres unmarked) ; field requested: IC50
105

Query (compound): CC(C)c1nc(CO)n(Cc2cccc3ccccc23)c1Sc1cc(Cl)cc(Cl)c1.Cl [Compound I-120, hydrochloride] ; field requested: IC50
99.6

Query (compound): Cc1cc(C)cc(Sc2c(C(C)C)nc(CO)n2C)c1 ; field requested: IC50
8.26

Query (compound): CCn1c(CCOC(N)=O)nc(C(C)C)c1Sc1cc(Cl)cc(Cl)c1 ; field requested: IC50
8.2

Query (compound): CC(C)c1nc(CO)n(Cc2cccc(N)c2)c1Sc1cc(Cl)cc(Cl)c1 ; field requested: IC50
2.13

Query (compound): CCn1c(CO)nc(C(C)C)c1Sc1cccc([N+](=O)[O-])c1 ; field requested: IC50
0.996

Query (compound): CC(=O)NCc1nc(C(C)C)c(Sc2cc(Cl)cc(Cl)c2)n1C ; field requested: IC50
218

Query (compound): CC(C)c1nc(CO)n(Cc2ccccc2)c1Sc1cccc([N+](=O)[O-])c1 ; field requested: IC50
7.56

Query (compound): CNC(=S)OCc1nc(C(C)C)c(Sc2cc(Cl)cc(Cl)c2)n1C ; field requested: IC50
107

Query (compound): CC(C)c1nc(CN=C(N)N)n(C)c1Sc1cc(Cl)cc(Cl)c1 ; field requested: IC50
33.6

Query (compound): CC(C)c1nc(CN)n(CF)c1Sc1cc(Cl)cc(Cl)c1 ; field requested: IC50
3.73

Query (compound): CC(C)c1nc(CO)n(CCc2ccccn2)c1Sc1cc(Cl)cc(Cl)c1 [Compound 112a] ; field requested: IC50
2.27

Query (compound): CC(C)c1nc(COC(N)=O)n(Cc2ccc[nH]c2=O)c1Sc1cc(Cl)cc(Cl)c1 ; field requested: IC50
1.39

Query (compound): CC(C)c1nc(CN)n(C)c1Sc1cc(Cl)cc(Cl)c1.O=C(O)C(=O)O [Compound I-66, oxalate] ; field requested: IC50
1.64

Query (compound): CC(C)c1nc(CN)n(C(C)C)c1Sc1cc(Cl)cc(Cl)c1 ; field requested: IC50
2.23

Query (compound): CC(=O)Cn1c(CO)nc(C(C)C)c1Sc1cc(Cl)cc(Cl)c1 ; field requested: IC50
7.23

Query (compound): CC(C)c1nc(CN)n(Cc2ccccn2)c1Sc1cc(Cl)cc(Cl)c1 ; field requested: IC50
1.74

Query (compound): CC(C)c1nc(CO)n(Cc2ccc(=O)[nH]c2)c1Sc1cc(Cl)cc(Cl)c1 [Compound 116a] ; field requested: IC50
3.06

Query (compound): CCCn1c(CO)nc(C(C)C)c1Sc1cc(Cl)cc(Cl)c1 ; field requested: IC50
2.53

Query (compound): CCn1c(CCCO)nc(C(C)C)c1Sc1cc(Cl)cc(Cl)c1 [Compound 137b] ; field requested: IC50
0.991

Query (compound): CC(C)c1nc(CO)n(Cc2cnc3ccccc3c2)c1Sc1cc(Cl)cc(Cl)c1 ; field requested: IC50
4.36

----------
- Study target: purified recombinant HIV-1 reverse transcriptase (Human immunodeficiency virus type 1 group M subtype B, UniProt P04585)
- Construct: purified recombinant HIV-1 reverse transcriptase; made in house; host or cells: Escherichia coli
- Assay protocol: reverse transcriptase inhibition, poly(rA)/(dT) template primer, [3H]dTTP uptake
- Format: biochemical
- Protocol: The reverse transcriptase activity of each of the compounds synthesized in Examples was assayed by the following procedures. Using the purified recombinant HIV-1 reverse transcriptase RT, E.C. 2.7.7.49) obtained by expression in Escherichia Coli, a 96-well plate assay system was established for assaying a large number of samples. The RT inhibitory activity was determined as follows. […]
Value type: IC50

Query (compound): Cc1nc(C(C)C(=O)O)c(Sc2cccc(Cl)c2)n1C (stereo not drawn) ; field requested: IC50
> 322 µM

Query (compound): CC(C)c1c(Sc2cc(Cl)cc(Cl)c2)nc(COCCOC(N)=O)n1C ; field requested: IC50
> 239 µM

Query (compound): CCCCCCCCCCCCn1c(CO)nc(C(C)C)c1Sc1cc(Cl)cc(Cl)c1 ; field requested: IC50
> 206 µM

----------
- Assay protocol: cytotoxicity in MT-4 cells (MTT, culture medium in place of HIV)
- Format: cell-based
- Settings: human, mt-4 cells
Consider the following compounds; for each one, report its CC50 at 120 h.

Query (compound): CC(C)c1nc(COCc2ccccc2)n(CCO)c1Sc1cc(Cl)cc(Cl)c1 [Compound 118c] ; field requested: CC50 at 120 h
6.3 to 12.5 µg/mL

Query (compound): CC(C)c1nc(COC(N)=O)n(CCCc2ccccn2)c1Sc1cc(Cl)cc(Cl)c1 ; field requested: CC50 at 120 h
6.3 to 12.5 µg/mL

Query (compound): CC(C)c1nc(CCCO)n(Cc2ccncc2)c1Sc1cc(Cl)cc(Cl)c1 [Compound 137c] ; field requested: CC50 at 120 h
6.3 to 12.5 µg/mL

Query (compound): CC(C)c1nc(CO)n(CCCc2ccccc2)c1Sc1cc(Cl)cc(Cl)c1 ; field requested: CC50 at 120 h
6.3 to 12.5 µg/mL

Query (compound): CC(C)c1nc(CCOC(N)=O)n(Cc2ccccc2[N+](=O)[O-])c1Sc1cc(Cl)cc(Cl)c1 [Compound 128c] ; field requested: CC50 at 120 h
6.3 to 12.5 µg/mL

Query (compound): CC(C)c1nc(CCO)n(Cc2ccncc2)c1Sc1cc(Cl)cc(Cl)c1 [Compound 123b] ; field requested: CC50 at 120 h
12.5 to 25 µg/mL

Query (compound): CC(C)c1nc(CCOC(N)=O)n(Cc2cccc([N+](=O)[O-])c2)c1Sc1cc(Cl)cc(Cl)c1 [Compound 128b] ; field requested: CC50 at 120 h
6.3 to 12.5 µg/mL

Query (compound): CC(C)c1nc(CO)n(CCO)c1Sc1cc(Cl)cc(Cl)c1 [Compound 119b] ; field requested: CC50 at 120 h
12.5 to 25 µg/mL

Query (compound): CC(C)c1nc(CCCOCc2ccccc2)n(CCO)c1Sc1cc(Cl)cc(Cl)c1 [Compound 136e] ; field requested: CC50 at 120 h
6.3 to 12.5 µg/mL

Query (compound): CC(C)c1nc(CCCO)n(CCO)c1Sc1cc(Cl)cc(Cl)c1 [Compound 137d] ; field requested: CC50 at 120 h
6.3 to 12.5 µg/mL

Query (compound): CC(C)c1nc(CCOC(N)=O)n(Cc2cccc(N)c2)c1Sc1cc(Cl)cc(Cl)c1 ; field requested: CC50 at 120 h
6.3 to 12.5 µg/mL

Query (compound): CC(C)c1nc(CCOC(N)=O)n(Cc2ccc(N)cc2)c1Sc1cc(Cl)cc(Cl)c1 ; field requested: CC50 at 120 h
6.3 to 12.5 µg/mL

Query (compound): CC(C)c1nc(CCCOC(N)=O)n(C)c1Sc1cc(Cl)cc(Cl)c1 ; field requested: CC50 at 120 h
6.3 to 12.5 µg/mL
